biological target: TNKS1 (Homo sapiens, UniProt O95271); test: Modified TNKS1 Assay 2 (auto-parsylation, [3H]-NAD+ SPA); format: biochemical; conditions: 6 nM TNKS1, 96 well
Sequence (O95271 whole entry): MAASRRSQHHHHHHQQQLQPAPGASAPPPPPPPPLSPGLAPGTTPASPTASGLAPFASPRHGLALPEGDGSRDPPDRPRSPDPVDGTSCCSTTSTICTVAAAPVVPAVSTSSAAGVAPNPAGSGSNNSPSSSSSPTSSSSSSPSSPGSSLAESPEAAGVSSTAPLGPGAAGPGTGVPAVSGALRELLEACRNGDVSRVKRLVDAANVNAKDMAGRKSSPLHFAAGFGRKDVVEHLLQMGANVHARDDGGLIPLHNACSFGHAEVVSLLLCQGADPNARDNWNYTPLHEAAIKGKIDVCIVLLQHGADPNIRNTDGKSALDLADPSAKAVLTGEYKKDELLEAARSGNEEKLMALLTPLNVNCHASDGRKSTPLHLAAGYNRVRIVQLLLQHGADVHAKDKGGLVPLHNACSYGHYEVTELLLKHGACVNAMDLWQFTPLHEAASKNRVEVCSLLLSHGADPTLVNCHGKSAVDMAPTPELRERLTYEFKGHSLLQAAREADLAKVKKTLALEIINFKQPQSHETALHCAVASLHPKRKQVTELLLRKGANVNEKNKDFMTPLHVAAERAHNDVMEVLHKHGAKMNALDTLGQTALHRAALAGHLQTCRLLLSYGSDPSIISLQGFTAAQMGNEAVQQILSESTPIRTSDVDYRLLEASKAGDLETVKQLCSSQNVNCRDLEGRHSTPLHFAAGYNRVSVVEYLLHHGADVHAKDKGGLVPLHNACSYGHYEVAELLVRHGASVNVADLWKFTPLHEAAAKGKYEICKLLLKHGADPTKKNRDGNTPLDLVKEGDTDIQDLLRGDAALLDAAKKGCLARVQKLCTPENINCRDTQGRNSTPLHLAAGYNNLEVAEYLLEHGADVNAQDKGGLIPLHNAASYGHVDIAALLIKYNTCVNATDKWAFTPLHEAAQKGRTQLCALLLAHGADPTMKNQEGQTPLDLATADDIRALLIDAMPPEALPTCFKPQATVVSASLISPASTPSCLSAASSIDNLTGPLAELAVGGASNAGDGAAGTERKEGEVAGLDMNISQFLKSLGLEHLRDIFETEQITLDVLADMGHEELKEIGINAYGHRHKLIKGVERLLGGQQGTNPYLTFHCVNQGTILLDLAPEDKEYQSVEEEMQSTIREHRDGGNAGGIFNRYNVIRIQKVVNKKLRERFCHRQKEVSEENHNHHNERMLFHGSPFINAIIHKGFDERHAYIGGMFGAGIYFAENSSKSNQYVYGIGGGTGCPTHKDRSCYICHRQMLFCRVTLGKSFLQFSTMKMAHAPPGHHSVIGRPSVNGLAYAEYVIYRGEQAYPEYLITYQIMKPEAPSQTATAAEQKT
pIC50: −log10 of the molar value.
metric_name: pIC50

[A] CC1CCN(CCNC(=O)c2nc[nH]c2C(=O)Nc2ccc(NC(=O)c3ccc(F)cc3Cl)cc2)CC1 [Example 126]
[B] COC(=O)c1nc[nH]c1C(=O)Nc1ccc(NC(=O)c2ccccc2Cl)c(C)c1 [Example 86]
[C] CNC(=O)c1nc[nH]c1C(=O)Nc1ccc(NC(=O)c2cc(OC)ccc2Cl)cc1 [Example 248]
Exercise: Put the entries in order of pIC50, starting with the largest number. Please respond by ranking the labels in the order requested.
Key: A, C, B
(A: 8.00, C: 6.62, B: 5.59)
